Kindly supply the reported solubility (g/100 g solution) values for the records listed here.
# assayComment: xn = mol fraction of the nth substance listed, in the solute-free solvent
# runParameters: 288.15 K; x2 = 0.3698
One number for each entry.

Previously resolved entries follow.
compound	measuredValue
Nc1cccc(S(=O)(=O)c2cccc(N)c2)c1 + CCO + O	0.732
Cc1[nH]c(=O)c(C#N)cc1-c1ccncc1 + CCO + O	0.00381
CC(C)OC(=O)C(C)NP(=O)(OCC1OC(n2ccc(=O)[nH]c2=O)C(C)(F)C1O)Oc1ccccc1 (centres undefined) + CCO + O	14.4

-- ask Fill in solubility (g/100 g solution) for record COc1cc2c(cc1OC)-c1cc3ccc(OC)c(OC)c3c[n+]1CC2.[Cl-] + CCO + O
-- reply 2.06
